Data origin, for the record: ChEMBL document CHEMBL3877292

- assayName: Cytotoxicity against African green monkey Vero cells after 48 hrs by SRB assay
- Assay type: toxicity, cell-based
- conditions: chlorocebus sabaeus
quantityMeasured: CC50 at 48 h (µM)

{"columns": ["compound", "resultValue"],
 "data": [
  ["CN(C)c1ccc(-c2nc(C(=O)N/N=C3\\SCC(=O)N3c3ccccc3)cc3c2[nH]c2ccccc23)cc1", 817],
  ["CCN1C(=O)CS/C1=N\\NC(=O)c1cc2c([nH]c3ccccc32)c(-c2cccc([N+](=O)[O-])c2)n1", 1790],
  ["O=C(NN1C(=O)CSC1c1ccccc1)c1cc2c([nH]c3ccccc32)c(-c2ccccc2F)n1 (centres undefined)", 637],
  ["O=C(N/N=C1\\SCC(=O)N1c1ccccc1)c1cc2c([nH]c3ccccc32)c(-c2cccc([N+](=O)[O-])c2)n1", 1170]
]}

----------
- assayName: Antiproliferative activity against human NCI-H460 cells after 48 hrs by SRB assay
- Type: functional
- conditions: NCI-H460, 48 h
Rule for this label: Y means GI50 is less than 20 µM; N means GI50 is at least 20 µM.

{"columns": ["compound", "qualitativeLabel"],
 "data": [
  ["CCN1C(=O)CS/C1=N\\NC(=O)c1cc2c([nH]c3ccccc32)c(-c2ccc(OC)cc2)n1", "Y"],
  ["O=C1CS/C(=N\\NC(=O)c2cc3c([nH]c4ccccc43)c(-c3cccc([N+](=O)[O-])c3)n2)N1", "N"],
  ["CN(C)c1ccc(-c2nc(C(=O)NN3C(=O)CSC3c3ccccc3)cc3c2[nH]c2ccccc23)cc1 (stereo not drawn)", "N"],
  ["O=C1CS/C(=N\\NC(=O)c2cc3c([nH]c4ccccc43)c(-c3ccccc3F)n2)N1", "N"],
  ["O=C(N/N=C1\\SCC(=O)N1c1ccccc1)c1cc2c([nH]c3ccccc32)c(-c2cccc([N+](=O)[O-])c2)n1", "Y"],
  ["O=C(NN1C(=O)CSC1c1cccs1)c1cc2c([nH]c3ccccc32)c(-c2ccccc2)n1 (stereo not drawn)", "N"],
  ["CCN1C(=O)CS/C1=N\\NC(=O)c1cc2c([nH]c3ccccc32)c(-c2ccccc2Cl)n1", "Y"],
  ["CCN1C(=O)CS/C1=N\\NC(=O)c1cc2c([nH]c3ccccc32)c(-c2ccc(N(C)C)cc2)n1", "N"],
  ["O=C1CS/C(=N\\NC(=O)c2cc3c([nH]c4ccccc43)c(-c3ccccc3Cl)n2)N1", "Y"],
  ["O=C1CS/C(=N\\NC(=O)c2cc3c([nH]c4ccccc43)c(-c3ccccc3)n2)N1", "Y"],
  ["O=C(N/N=C1\\SCC(=O)N1c1ccccc1)c1cc2c([nH]c3ccccc32)c(-c2ccccc2)n1", "N"],
  ["O=C(NN1C(=O)CSC1c1ccccc1Cl)c1cc2c([nH]c3ccccc32)c(-c2ccccc2)n1 (stereo not drawn)", "N"],
  ["CCN1C(=O)CS/C1=N\\NC(=O)c1cc2c([nH]c3ccccc32)c(-c2ccccc2F)n1", "N"],
  ["O=C(NN1C(=O)CSC1c1ccccc1)c1cc2c([nH]c3ccccc32)c(-c2ccccc2)n1 (stereo not drawn)", "N"],
  ["CCN1C(=O)CS/C1=N\\NC(=O)c1cc2c([nH]c3ccccc32)c(-c2cccc([N+](=O)[O-])c2)n1", "N"],
  ["COc1ccc(-c2nc(C(=O)N/N=C3/NC(=O)CS3)cc3c2[nH]c2ccccc23)cc1", "Y"],
  ["O=C(NN1C(=O)CSC1c1ccccc1)c1cc2c([nH]c3ccccc32)c(-c2cccc([N+](=O)[O-])c2)n1 (stereo not drawn)", "N"],
  ["O=C(NN1C(=O)CSC1c1ccccc1)c1cc2c([nH]c3ccccc32)c(-c2ccccc2F)n1 (stereo not drawn)", "N"]
]}
